Percent Effect values by entry
target: Tyrosyl-tRNA synthetase, putative (Trypanosoma cruzi (strain CL Brener)); assay: Trypanosoma cruzi tyrosyl tRNA synthetase (TcYRS) _High Tyrosine SOP; type: functional; design: scale not given: in the data most compounds retested in dose-response had high values; details: 30 µM
Just the number please, in %, no unit attached.

                                   compound                               measured_on  value_measured
0  CC(c1nc(C2CC2)no1)N1CCN(Cc2ccccc2F)CC1 (stereo unspecified)  Tyrosyl-tRNA synthetase, putative (Trypanosoma cruzi (strain CL Brener))            2.08
1   Cc1nn(C)c(C)c1CC(=O)N1CCC(Nc2cccnn2)CC1  Tyrosyl-tRNA synthetase, putative (Trypanosoma cruzi (strain CL Brener))            5.39
2  CSC(C)C(=O)N1CCCN(Cc2cscn2)CC1 (stereo unspecified)  Tyrosyl-tRNA synthetase, putative (Trypanosoma cruzi (strain CL Brener))            4.41

Could you please provide reported Percent Effect for Cc1cc(C)n(C2CN(Cc3noc(-c4ccccc4)n3)C2)n1 ? Thanks!
3.23

Could you please provide reported Percent Effect for CC(C)C(NC(=O)NCC1(CO)CC1)c1nnc2n1CCC2 (stereo unspecified) ? Thanks!
7.92

Could you please provide reported Percent Effect for COc1ccc(CCNC(=O)NC2CCCC2)cc1OC ? Thanks!
5.82

The measurements presented in this section are drawn from ChEMBL document CHEMBL3988442.
